Would you kindly list hCD71:HSA for each of these binders?
Molecular target: T1, human CD71 extracellular domain (human, UniProt P02786 89-760)
T1 construct: also called hCD71; CD71-ECD
T1 sequence (P02786 89-760): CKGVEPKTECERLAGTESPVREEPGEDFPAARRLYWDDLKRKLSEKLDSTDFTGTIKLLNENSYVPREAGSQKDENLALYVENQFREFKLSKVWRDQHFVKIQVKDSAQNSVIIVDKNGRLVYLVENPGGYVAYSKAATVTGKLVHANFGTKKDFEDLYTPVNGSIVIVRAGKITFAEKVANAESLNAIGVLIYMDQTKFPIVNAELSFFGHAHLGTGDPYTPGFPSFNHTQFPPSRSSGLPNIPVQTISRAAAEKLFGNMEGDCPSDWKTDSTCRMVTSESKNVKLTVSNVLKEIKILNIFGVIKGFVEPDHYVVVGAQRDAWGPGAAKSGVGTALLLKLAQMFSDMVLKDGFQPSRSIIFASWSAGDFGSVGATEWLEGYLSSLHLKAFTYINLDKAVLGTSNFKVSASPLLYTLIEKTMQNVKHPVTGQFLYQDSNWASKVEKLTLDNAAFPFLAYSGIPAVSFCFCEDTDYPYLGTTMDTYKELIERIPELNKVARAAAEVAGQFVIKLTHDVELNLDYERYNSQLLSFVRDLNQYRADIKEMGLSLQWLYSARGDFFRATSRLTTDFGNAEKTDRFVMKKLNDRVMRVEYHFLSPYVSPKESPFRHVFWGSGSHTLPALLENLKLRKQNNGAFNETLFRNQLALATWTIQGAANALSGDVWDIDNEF
Assay: primary ELISA; signal over HSA control
Give bare numbers, in ratio.

Answered examples (2):
[[record]]
binder = "CD71-binding FN3 domain SEQ ID NO 373 (designed binder) MLPAPKNLVVSRVTEDSARLSWTAPDAAFDSFFIGYLEPQPPGEAISLFVPGSERSYDLTGLKPGTEYNVTIQGVKGGFPSDPLVASFTT"
measure_name = "hCD71:HSA"
obs_value = 98

[[record]]
binder = "CD71-binding FN3 domain SEQ ID NO 411 (designed binder) MLPAPKNLVVSRVTEDSARLSWTAPDAAFDSFFIGYLEPQPPGEAISLFVPGSERSYDLTGLKPGTEYNVTIQGVKGGFPSVPLSATFTT"
measure_name = "hCD71:HSA"
obs_value = 261


API: the following record is the query input.
Which hCD71:HSA value belongs to CD71-binding FN3 domain SEQ ID NO 395 (designed binder) MLPAPKNLVVSRVTEDSARLSWTAPDTAFDSFFIGYLEPQPPGEAIGLFVPGSERSYDLTGLKPGTEYNVTIQGVKGGFPSDPLSAFFTT ?
72
